Below, each entry is listed alongside its reported pKi.
biological target: Plasma kallikrein (Homo sapiens, UniProt P03952); assay: Inhibition of plasma kallikrein by dixon plot method
Sequence (P03952 20-390 limits assumed): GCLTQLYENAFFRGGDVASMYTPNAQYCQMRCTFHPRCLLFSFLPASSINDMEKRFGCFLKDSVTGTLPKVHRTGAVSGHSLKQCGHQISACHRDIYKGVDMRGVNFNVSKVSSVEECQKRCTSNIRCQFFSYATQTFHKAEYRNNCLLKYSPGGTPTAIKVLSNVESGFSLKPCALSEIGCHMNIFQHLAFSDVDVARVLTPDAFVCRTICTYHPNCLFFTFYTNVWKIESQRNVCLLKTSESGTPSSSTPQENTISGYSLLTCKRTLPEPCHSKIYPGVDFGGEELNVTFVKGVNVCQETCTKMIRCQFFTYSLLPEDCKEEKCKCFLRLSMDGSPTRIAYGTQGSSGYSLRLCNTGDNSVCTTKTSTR
Sequence (P03952 391-638 limits assumed): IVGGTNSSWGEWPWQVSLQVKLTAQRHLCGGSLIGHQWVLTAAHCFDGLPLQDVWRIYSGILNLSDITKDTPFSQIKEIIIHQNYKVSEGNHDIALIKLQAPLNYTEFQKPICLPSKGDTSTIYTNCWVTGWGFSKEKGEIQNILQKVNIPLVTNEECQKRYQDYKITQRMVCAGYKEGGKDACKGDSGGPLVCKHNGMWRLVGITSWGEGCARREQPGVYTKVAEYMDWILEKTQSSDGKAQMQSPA
Notebook: values listed as pKi are -log10 of the concentration (mol/L).

{"columns": ["compound_structure", "target_of_assay", "number"],
 "data": [
  ["N=C(N)NCc1cccc(C[C@H](NC(=O)[C@@H](CCCc2ccccc2)NS(=O)(=O)Cc2cccc(C(=O)O)c2)C(=O)NCc2ccc(C(=N)N)cc2)c1", "Plasma kallikrein (Homo sapiens, UniProt P03952)", 10.12],
  ["N=C(N)c1ccc(CNC(=O)[C@@H]2Cc3ccc(cc3)OCCCCOc3ccc(cc3)C[C@@H](NS(=O)(=O)Cc3ccccc3)C(=O)N2)cc1", "Plasma kallikrein (Homo sapiens, UniProt P03952)", 7.72],
  ["N=C(N)c1ccc(CNC(=O)[C@@H]2Cc3cccc(c3)CNC(=O)CN3CCN(CC3)CC(=O)NCc3cccc(c3)C[C@@H](NS(=O)(=O)Cc3ccccc3)C(=O)N2)cc1", "Plasma kallikrein (Homo sapiens, UniProt P03952)", 7.60]
]}

Now for the molecule whose pKi we want.
Please report the measured pKi for "N=C(N)c1ccc(CNC(=O)[C@@H]2Cc3cn(nn3)Cc3cccc([n+]3[O-])Cn3cc(nn3)C[C@@H](NS(=O)(=O)Cc3ccccc3)C(=O)N2)cc1"
7.17
